System: C4-2 cells (high-STEAP2 expressing)
Assay Details: Internalization and total binding on C4-2 cells (imaging, qualitative score)
Type: cell-based, human
Parameters: key: − (no internalization or binding); +(weak internalization or binding); ++(moderate internalization or binding); +++(robust internalization or binding)
Reported Conditions: 10 μg/ml antibody
Property Measured: Internalization (37° C., 1 h) Qualitative Score

H1H7972P: anti-STEAP2 antibody, HCVR/LCVR SEQ ID NOs 186/194 (antibody, V domains shown) VH: QVQLQQSGPGLVKPSQTLSLTCAISGDSVSSNSAAWNWIRQSPSRGLEWLGRTYYRSKWYNDYVVSVKSRIIFNPDTSKNQFSLQLNSVTPEDTAVYYCARVRQDYRSGPFDYWGQGTLVTVSS VL: EIVMTQSPVTLSVSPGERATLSCWASQSVSSSLAWYQQKPGQAPRLLIYGASTRATGIPARFSGSGSGTGFTLTISSLQSEDFAVYYCQQYNNWPFTFGPGTKVDIK : +
H2M11164N: anti-STEAP2 antibody, mouse IgG2 Fc, HCVR/LCVR SEQ ID NOs 282/290 (antibody, V domains shown, mouse IgG2 Fc) VH: QVQLQQSGPGLVKPSQTLSLTCVISGDSVSTNSAAWNWIRQSPSRGLEWLGRTYYRSKWYNDYAVSVRSRITINPVTSKNQVALHLNSVTPEDTAVYYCARAGIVVVPGPETYYYYYHGLDVWGQGTTVTVSS VL: DIQMTQSPSSLSASVGDRVTITCRASQNIRSYLNWYQQKPGKAPKLLIHVASSLQSGVPSRFSGSGSGTDFTLTISSLQPEDFATYYCQQSYSTPPITFGHGTRLEIK : +++
